Measured IC50 by item
System: hα2A receptor (Homo sapiens, UniProt P08913)
Construct: expressed in transfected cells; host or cells: CHO cells, stably transfected; membrane preparation
Sequence (P08913 1-465): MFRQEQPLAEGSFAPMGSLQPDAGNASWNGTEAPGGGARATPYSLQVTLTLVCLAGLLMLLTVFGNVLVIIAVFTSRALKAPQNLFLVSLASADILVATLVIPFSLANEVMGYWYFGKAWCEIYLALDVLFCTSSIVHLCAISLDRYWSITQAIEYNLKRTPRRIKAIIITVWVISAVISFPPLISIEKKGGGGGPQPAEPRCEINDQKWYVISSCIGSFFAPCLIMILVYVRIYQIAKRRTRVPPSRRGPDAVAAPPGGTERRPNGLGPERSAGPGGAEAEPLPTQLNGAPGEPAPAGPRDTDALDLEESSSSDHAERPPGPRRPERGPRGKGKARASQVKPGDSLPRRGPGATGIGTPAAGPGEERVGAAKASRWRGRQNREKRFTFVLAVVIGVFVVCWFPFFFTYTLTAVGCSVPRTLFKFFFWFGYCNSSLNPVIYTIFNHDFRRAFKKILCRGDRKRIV
Assay Remarks: Radioligand binding experiment for α2A-adrenoceptor ([3H]raulwolscine, CHO cell membranes)
Measurement Conditions: [3H]raulwolscine binding, read-out: h-α2A pIC50 (converted)
Experimental Readout: IC50 (nM)

>>> numeric_result("CC(=O)NCc1ccc(Cn2ccnc(NC3CCN(C/C(C)=C/c4ccccc4)CC3)c2=O)cc1")
158
>>> numeric_result("CCN(CC)c1ccc(C(=O)Cn2ccnc(NC3CCN(C/C(C)=C/c4ccccc4)CC3)c2=O)cc1")
39.8
>>> numeric_result("C/C(=C\\c1ccccc1)CN1CCC(Nc2nccn(Cc3ccccc3Cl)c2=O)CC1")
63.1
>>> numeric_result("C/C(=C\\c1ccccc1)CN1CCC(Nc2nccn(CCCN(C)C(=O)c3ccccc3)c2=O)CC1")
251
